Assay: Antioxidant activity assessed as DPPH radical scavenging activity after 30 mins by plate reader analysis
Type: physicochemical
pEC50: −log10 of the molar value.
endpoint name: pEC50

- O=C1O[C@H]([C@@H](O)CO)C(O)=C1O: 4.52
- O=C(O)[C@@H]1Cc2cc(O)c(O[C@@H]3O[C@H](CO[C@@H]4O[C@H](CO)[C@@H](O)[C@H](O)[C@H]4O)[C@@H](O)[C@H](O)[C@H]3O)cc2N1C(=O)/C=C/c1ccc(O[C@@H]2O[C@H](CO)[C@@H](O)[C@H](O)[C@H]2O)cc1: 4.36
- COc1cc(/C=C/C(=O)O[C@H]2[C@H](OC[C@H]3O[C@@H](Oc4cc5c(cc4O)C[C@@H](C(=O)O)N5C(=O)/C=C/c4ccc(O[C@@H]5O[C@H](CO)[C@@H](O)[C@H](O)[C@H]5O)cc4)[C@H](O)[C@@H](O)[C@@H]3O)O[C@H](CO)[C@@H](O)[C@@H]2O)ccc1O: 4.50
- COc1cc(/C=C/C(=O)N2c3cc(O[C@@H]4O[C@H](CO[C@@H]5O[C@H](CO)[C@@H](O)[C@H](O)[C@H]5O)[C@@H](O)[C@H](O)[C@H]4O)c(O)cc3C[C@H]2C(=O)O)ccc1O: 4.40

1: O=C(O)[C@@H]1Cc2cc(O)c(O[C@@H]3O[C@H](CO)[C@@H](O)[C@H](O)[C@H]3O)cc2N1C(=O)/C=C/c1ccc(O)cc1
2: O=C(/C=C/c1ccc(O)c(O)c1)O[C@H]1[C@H](OC[C@H]2O[C@@H](Oc3cc4c(cc3O)C[C@@H](C(=O)O)N4C(=O)/C=C/c3ccc(O)cc3)[C@H](O)[C@@H](O)[C@@H]2O)O[C@H](CO)[C@@H](O)[C@@H]1O
Query: Hi there, can you help? I need to know whether 1 or 2 has lower measured pEC50. Selection: enter the item's label.
Reply: 1
(1: 4.45, 2: 4.82)

P: O=C(O)[C@@H]1Cc2cc(O)c(O[C@@H]3O[C@H](CO)[C@@H](O)[C@H](O)[C@H]3O)cc2N1C(=O)/C=C/c1ccc(O[C@@H]2O[C@H](CO)[C@@H](O)[C@H](O)[C@H]2O)cc1
Q: COc1cc(/C=C/C(=O)N2c3cc(O[C@@H]4O[C@H](CO[C@@H]5O[C@H](CO)[C@@H](O)[C@H](O)[C@H]5OC(=O)/C=C/c5ccc(O)c(O)c5)[C@@H](O)[C@H](O)[C@H]4O)c(O)cc3C[C@H]2C(=O)O)ccc1O
Query: Of P versus Q , which is the one with smaller reported pEC50? Give the chosen item's label as your response.
Reply: P
(P: 4.42, Q: 4.79)

----------
Test: Antioxidant activity assessed as DPPH radical scavenging activity after 30 mins by plate reader analysis
Type: physicochemical
Settings: 0.5 h
endpoint name: Activity

• COc1cc(/C=C/C(=O)N2c3cc(O[C@@H]4O[C@H](CO)[C@@H](O)[C@H](O)[C@H]4O)c(O)cc3C[C@H]2C(=O)O)ccc1O = Dose-dependent effect
• COc1cc(/C=C/C(=O)OC[C@H]2O[C@@H](OC[C@H]3O[C@@H](Oc4cc5c(cc4O)C[C@@H](C(=O)O)N5C(=O)/C=C/c4ccc(O)cc4)[C@H](O)[C@@H](O)[C@@H]3O)[C@H](O)[C@@H](O)[C@@H]2O)ccc1O = Dose-dependent effect
• COc1cc(/C=C/C(=O)N2c3cc(O[C@@H]4O[C@H](CO[C@@H]5O[C@H](CO)[C@@H](O)[C@H](O)[C@H]5O)[C@@H](O)[C@H](O)[C@H]4O)c(O)cc3C[C@H]2C(=O)O)ccc1O[C@@H]1O[C@H](CO)[C@@H](O)[C@H](O)[C@H]1O = Dose-dependent effect

----------
Assay: Antioxidant activity assessed as DPPH radical scavenging activity after 30 mins by plate reader analysis
Type: physicochemical
endpoint name: EC50 (µM)

- COc1cc(/C=C/C(=O)O[C@H]2[C@H](OC[C@H]3O[C@@H](Oc4cc5c(cc4O)C[C@@H](C(=O)O)N5C(=O)/C=C/c4ccc(O)cc4)[C@H](O)[C@@H](O)[C@@H]3O)O[C@H](CO)[C@@H](O)[C@@H]2O)ccc1O: 29.1
- COc1cc(/C=C/C(=O)OC[C@H]2O[C@@H](OC[C@H]3O[C@@H](Oc4cc5c(cc4O)C[C@@H](C(=O)O)N5C(=O)/C=C/c4ccc(O)cc4)[C@H](O)[C@@H](O)[C@@H]3O)[C@H](O)[C@@H](O)[C@@H]2O)ccc1O: 35.4
- COc1cc(/C=C/C(=O)N2c3cc(O[C@@H]4O[C@H](CO)[C@@H](O)[C@H](O)[C@H]4O)c(O)cc3C[C@H]2C(=O)O)ccc1O: 35.1
